Listing of entries alongside the reported pEC50.
# assay-target: CFTR ΔF508 mutant (Homo sapiens, UniProt P13569, DEL508-508)
# Construct: expressed in transfected cells; host or cells: CFBE41o- (adenoviral transduction)
# Sequence (P13569 with tags, fused parts or gaps DEL508-508): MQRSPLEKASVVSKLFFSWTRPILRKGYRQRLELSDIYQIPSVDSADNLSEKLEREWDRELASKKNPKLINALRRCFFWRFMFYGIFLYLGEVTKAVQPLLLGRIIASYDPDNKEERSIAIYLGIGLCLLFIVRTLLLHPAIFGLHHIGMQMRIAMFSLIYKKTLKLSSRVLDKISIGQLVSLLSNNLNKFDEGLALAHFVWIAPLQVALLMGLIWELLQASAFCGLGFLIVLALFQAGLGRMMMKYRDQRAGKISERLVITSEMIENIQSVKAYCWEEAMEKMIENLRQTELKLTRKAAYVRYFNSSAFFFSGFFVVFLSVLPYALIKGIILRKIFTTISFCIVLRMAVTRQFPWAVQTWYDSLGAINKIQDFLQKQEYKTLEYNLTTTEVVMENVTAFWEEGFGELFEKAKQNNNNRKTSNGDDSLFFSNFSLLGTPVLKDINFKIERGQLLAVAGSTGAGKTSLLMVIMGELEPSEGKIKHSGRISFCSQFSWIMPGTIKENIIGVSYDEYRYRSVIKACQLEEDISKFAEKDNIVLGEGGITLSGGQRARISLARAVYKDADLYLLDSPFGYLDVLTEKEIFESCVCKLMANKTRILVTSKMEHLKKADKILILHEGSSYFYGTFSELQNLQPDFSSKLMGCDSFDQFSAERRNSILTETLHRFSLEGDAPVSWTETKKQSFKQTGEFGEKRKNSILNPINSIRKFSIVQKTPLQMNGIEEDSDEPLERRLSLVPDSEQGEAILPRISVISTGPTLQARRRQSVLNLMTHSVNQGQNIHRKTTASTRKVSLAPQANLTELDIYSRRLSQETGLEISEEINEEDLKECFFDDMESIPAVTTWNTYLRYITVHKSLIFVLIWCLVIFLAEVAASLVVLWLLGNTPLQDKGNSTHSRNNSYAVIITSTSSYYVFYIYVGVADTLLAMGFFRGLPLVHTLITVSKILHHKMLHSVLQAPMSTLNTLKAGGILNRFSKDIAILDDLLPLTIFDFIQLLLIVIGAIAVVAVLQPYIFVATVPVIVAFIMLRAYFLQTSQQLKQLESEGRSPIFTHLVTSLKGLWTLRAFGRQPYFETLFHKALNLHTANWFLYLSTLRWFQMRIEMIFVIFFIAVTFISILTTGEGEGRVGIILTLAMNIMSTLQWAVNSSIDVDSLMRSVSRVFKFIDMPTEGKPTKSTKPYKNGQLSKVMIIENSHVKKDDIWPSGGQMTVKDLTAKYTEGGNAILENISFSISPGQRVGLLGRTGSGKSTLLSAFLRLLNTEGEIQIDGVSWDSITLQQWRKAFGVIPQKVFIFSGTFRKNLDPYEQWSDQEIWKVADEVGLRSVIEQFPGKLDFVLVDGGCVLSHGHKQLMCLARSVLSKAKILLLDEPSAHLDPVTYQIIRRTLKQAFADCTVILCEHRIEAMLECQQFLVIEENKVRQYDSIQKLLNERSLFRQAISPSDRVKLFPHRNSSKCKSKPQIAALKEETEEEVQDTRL
# test-details: YFP-halide influx assay for the CFTR-ΔF508 mutation (384 well, CFBE41o- cells, FDSS/μCell)
# Format: cell-based
# condition-description: forskolin 10.67 μM, fluorescence after 36 seconds, read-out: EC50 measured by YFP-halide influx assay for the CFTR-ΔF508
Recall that pEC50 is obtained by taking minus log10 of the concentration measured in molar.

Use these answered entries as a reference point.
* CC1(C)Cc2c(sc(NC(=O)c3n[nH]cc3C3=COCCO3)c2C(N)=O)C(C)(C)O1 [Compound 94] | 7.52
* Cn1ccc(C(=O)Nc2sc3c(c2C(N)=O)CC(C)(C)OC3(C)C)n1 [Compound 119] | 6.80
* CCOCCc1c[nH]nc1C(=O)Nc1sc2c(c1C(N)=O)CC(C)(C)OC2(C)C [Compound 72] | 7.75
* CC1(C)Cc2c(sc(NC(=O)C(CO)CC3CC3)c2C(N)=O)C(C)(C)O1 (centres unmarked) [Compound 84] | 7.60
* CC1(C)Cc2c(sc(NC(=O)C3CC3(F)F)c2C(N)=O)C(C)(C)O1 (centres unmarked) [Compound 48] | 7.18

Alright, here's another molecule for you.
With CFTR ΔF508 mutant (Homo sapiens, UniProt P13569, DEL508-508) as the test system, CC(O)c1cc(C(=O)Nc2sc3c(c2C(N)=O)CC(C)(C)OC3(C)C)n[nH]1 (centres unmarked) [Compound 61] showed pEC50 of 6.73
